- target entity: Rabies virus glycoprotein G, Challenge Virus Standard (CVS)-11 strain (Rabies virus, strain CVS-11 (genotype 1 Lyssavirus)) (UniProt O92284)
- Sequence (O92284 20-524 limits assumed): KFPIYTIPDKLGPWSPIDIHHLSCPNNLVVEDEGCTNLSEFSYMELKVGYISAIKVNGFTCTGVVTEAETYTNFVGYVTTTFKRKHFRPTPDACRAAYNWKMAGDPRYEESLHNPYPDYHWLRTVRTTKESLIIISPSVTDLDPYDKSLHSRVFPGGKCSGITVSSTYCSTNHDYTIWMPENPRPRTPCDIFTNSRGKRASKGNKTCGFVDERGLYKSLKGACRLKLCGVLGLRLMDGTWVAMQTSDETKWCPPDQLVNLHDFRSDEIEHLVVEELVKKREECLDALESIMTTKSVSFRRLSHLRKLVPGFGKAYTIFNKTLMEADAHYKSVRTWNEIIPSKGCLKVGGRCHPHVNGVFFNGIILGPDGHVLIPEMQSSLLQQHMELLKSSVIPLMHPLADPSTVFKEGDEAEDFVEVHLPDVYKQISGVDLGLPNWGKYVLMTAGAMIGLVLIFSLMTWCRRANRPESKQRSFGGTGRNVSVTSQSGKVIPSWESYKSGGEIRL
- experiment notes: cell-based or functional assay
metric name: CVS-11 neutralizing antibody titer (RFFIT), IU/mg

Example entries begin here.
# binder, reported measurement
measured = [
    ("LG192C4 (VHH) VHH: EVQLVESGGGLVQAGGSLRLSCEASGRTFSSYAMVGWFRQAPGKEREFVAAVTRWSGARTVYADSVKGRFTISRDNAENTVYLQMNSLKPEDTAVYTCAADSTNRNSGAVYYSWAYDYWGQGTQVTVSS", "< 0.63 IU/mg"),
    ("LG191E4 (VHH) VHH: EVQLVESGGGLVQAGGSLRLSCAASGPTFSADTMGWFRQAPGKEREFVATIPWSGGIAYYSDSVKGRFTMSRDNAKNTVDLQMNSLKPEDTALYYCAGSSRIYIYSDSLSERSYDYWGQGTQVTVSS", "< 0.63 IU/mg"),
]

Now for another entry.
Item: LG192A8 (VHH) VHH: EVQLVESGGGLVQAGGSLRLSCAASERTVIAYTMGWFRRAPGKERDFVAAMNWNGGNTIYADSAKGRFTISRDNAKNTVYLQMNSLKAEDTAVYYCAARPRFWGSYEYDYWGQGTQVTVSS | CVS-11 neutralizing antibody titer (RFFIT), IU/mg: < 0.77 IU/mg
